molecular target: hT40 (Homo sapiens, UniProt P10636); experiment: Biacore X100 SPR, scAb captured via anti-HuCk, hT40 as analyte; format: binding; settings: scAb, Table 23, T441 (hT40)
Sequence (P10636 1-441 isoform P10636-8): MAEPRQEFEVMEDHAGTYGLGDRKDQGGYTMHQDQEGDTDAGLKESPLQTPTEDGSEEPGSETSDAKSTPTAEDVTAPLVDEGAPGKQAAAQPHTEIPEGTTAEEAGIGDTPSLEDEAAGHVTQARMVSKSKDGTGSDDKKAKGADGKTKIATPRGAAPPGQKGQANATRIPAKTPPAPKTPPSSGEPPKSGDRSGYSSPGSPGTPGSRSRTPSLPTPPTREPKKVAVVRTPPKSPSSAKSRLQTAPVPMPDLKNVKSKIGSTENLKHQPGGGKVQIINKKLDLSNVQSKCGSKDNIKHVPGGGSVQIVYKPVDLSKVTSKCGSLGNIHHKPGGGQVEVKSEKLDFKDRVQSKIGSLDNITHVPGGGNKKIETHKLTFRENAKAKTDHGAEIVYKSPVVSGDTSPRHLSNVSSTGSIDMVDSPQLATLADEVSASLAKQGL
OBSERVATION TYPE: kd (s⁻¹)
The response must be a number in s⁻¹ with no trailing unit.

The following molecules have reported results that may help.
Prompt line: Which kd value belongs to CE2: anti-tau clone referred to as CE2 or E1B8, SEQ ID NO: 366 (protein, CE2/E1B8 amino acid sequence) scFv: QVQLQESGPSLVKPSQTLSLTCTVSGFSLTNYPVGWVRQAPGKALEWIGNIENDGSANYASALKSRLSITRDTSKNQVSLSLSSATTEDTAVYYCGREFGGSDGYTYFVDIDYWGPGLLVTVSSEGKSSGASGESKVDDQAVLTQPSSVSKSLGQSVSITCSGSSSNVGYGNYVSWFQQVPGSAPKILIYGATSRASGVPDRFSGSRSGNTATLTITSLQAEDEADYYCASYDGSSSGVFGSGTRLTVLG ?
Response line: 0.001077

Prompt line: # kd lookup, item CE3: anti-tau clone, SEQ ID NO: 367 (protein, CE3 amino acid sequence) scFv: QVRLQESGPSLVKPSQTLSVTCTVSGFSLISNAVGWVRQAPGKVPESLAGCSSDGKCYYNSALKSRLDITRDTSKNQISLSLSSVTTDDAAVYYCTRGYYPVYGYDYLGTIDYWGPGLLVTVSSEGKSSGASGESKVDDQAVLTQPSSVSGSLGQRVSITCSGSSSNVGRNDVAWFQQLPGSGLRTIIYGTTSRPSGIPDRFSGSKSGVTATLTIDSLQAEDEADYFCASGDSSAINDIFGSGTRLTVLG
Response line: 0.000662

Prompt line: What value of kd has been recorded for this entry: CA4: anti-tau clone, SEQ ID NO: 368 (protein, CA4 amino acid sequence) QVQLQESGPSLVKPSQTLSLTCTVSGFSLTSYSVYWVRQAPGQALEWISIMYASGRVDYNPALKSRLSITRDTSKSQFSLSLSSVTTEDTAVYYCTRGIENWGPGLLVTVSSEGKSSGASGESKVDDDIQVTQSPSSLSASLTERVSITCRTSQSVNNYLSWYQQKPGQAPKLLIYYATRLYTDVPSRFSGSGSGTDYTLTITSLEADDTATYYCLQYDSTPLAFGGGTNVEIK
Response line: 0.001654

Continue with the molecule presented below.
Prompt line: Could you share which kd value was measured for S1G2: anti-tau clone, SEQ ID NO: 81 (protein, S1G2 amino acid sequence) scFv: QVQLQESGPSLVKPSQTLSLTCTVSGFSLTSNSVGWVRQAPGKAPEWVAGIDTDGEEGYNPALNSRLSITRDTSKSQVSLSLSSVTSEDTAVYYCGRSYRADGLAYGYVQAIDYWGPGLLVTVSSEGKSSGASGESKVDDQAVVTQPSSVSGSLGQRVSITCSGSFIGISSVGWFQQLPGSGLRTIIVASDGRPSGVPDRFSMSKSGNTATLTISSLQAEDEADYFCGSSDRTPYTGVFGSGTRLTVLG ?
Response line: 0.00018
